Assay summary: Bioavailability test: pharmacokinetic study of TBN (API) and enteric-coated tablets in beagle dogs
Type: in vivo
Stated conditions: dog, blood, oral gavage, 175 mg, individual animal
Assay endpoint: Tmax (min)
One number for each entry, in min.

# compound Cc1nc(C)c(/C=[N+](\[O-])C(C)(C)C)nc1C ; its Tmax = 15

----------
Assay summary: Bioavailability test: pharmacokinetic study of TBN (API) and enteric-coated tablets in beagle dogs
Type: in vivo
Stated conditions: beagle, dog, blood, po, 175 mg, oral gavage, individual animal, read-out: MRT (0-t)
Assay endpoint: MRT last (min)
Answers are plain numbers, in min.

# molecule Cc1nc(C)c(/C=[N+](\[O-])C(C)(C)C)nc1C [TBN] ; its MRT last = 37.2
